B1: OR4K15 (parent)
chain: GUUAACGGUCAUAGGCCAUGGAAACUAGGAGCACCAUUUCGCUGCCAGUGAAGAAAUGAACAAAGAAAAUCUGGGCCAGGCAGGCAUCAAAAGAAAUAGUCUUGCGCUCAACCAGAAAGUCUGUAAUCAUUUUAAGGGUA

# Variants of: B1
# run description: self-cleavage, relative activity (ratio to wild type); higher = more cleavage; in vitro, sequencing; the parent is a self-cleaving ribozyme
Note to self: class labels come from recorded self-cleavage, ranges listed here: range 1: < 0.1; range 2: ≥ 0.1 and < 0.8; range 3: ≥ 0.8

U97C A118G: range 2
G29A U39A: range 3
G7A U131C: range 3

IN: Hi there! Could you help me figure out the category for A62C A111G please?
OUT: range 1

IN: Hi there! Could you help me figure out the category for U9C A110G please?
OUT: range 2

IN: Hi there! Could you help me figure out the category for G14A A56G please?
OUT: range 3

IN: Hi there! Could you help me figure out the category for A59U U108A please?
OUT: range 1

IN: Hi there! Could you help me figure out the category for U57C U102G please?
OUT: range 2

IN: Hi there! Could you help me figure out the category for A5U U97C please?
OUT: range 1
